test: Logarithm of partition coefficient of the neutral form of compound given for octanol/water solvent system; type: physicochemical
Threshold check on logP: at or above 2 gives Satisfied, strictly below gives Not satisfied.

INSERT INTO measurements (smiles_string, cat) VALUES
  ('OCCCOc1cccc(CN2CCCCC2)c1', 'Satisfied'),
  ('c1ccc(NCCCOc2cccc(CN3CCCCC3)c2)nc1', 'Satisfied'),
  ('Cc1[nH]cnc1CSCCNc1[nH]ccc1[N+](=O)[O-]', 'Not satisfied');

Qu. Dear colleague, could you confirm whether CN(C)Cc1ccc(CSCCNc2ncc(Cc3ccc4ccccc4c3)c(O)n2)o1 has logP at or above 2?
Ans. Satisfied

Qu. Dear colleague, could you confirm whether CC(=O)NCCCOc1cccc(CN2CCCCC2)c1 has logP at or above 2?
Ans. Satisfied

Qu. Dear colleague, could you confirm whether CN(C)Cc1ccc(-c2cccc(Nc3[nH]ccc3[N+](=O)[O-])c2)o1 has logP at or above 2?
Ans. Satisfied
